Molecular target: T1, recombinant human TL1A (human, UniProt O95150 71-251)
T1 construct: The ELISA method says only 'recombinant TL1A' coated on plates; homotrimeric cytokine; also called TNFSF15; recombinant TL1A
T1 chain: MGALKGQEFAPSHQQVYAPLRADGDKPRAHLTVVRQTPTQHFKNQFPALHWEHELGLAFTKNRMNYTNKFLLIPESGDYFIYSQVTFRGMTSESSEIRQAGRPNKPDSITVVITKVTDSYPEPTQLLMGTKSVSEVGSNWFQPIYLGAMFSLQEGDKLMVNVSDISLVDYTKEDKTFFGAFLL
Experiment: competition ELISA on coated recombinant TL1A; competitor biotinylated TL1A-0002
Listing: IC50 of selected binders
Numeric answer only, unit nM assumed.

Some binders with known IC50 results, for comparison:
TL1A-0243 (antibody, V domains shown, IgG1 effector-minimized/kappa) VH: QVQLVQSGAEVKKPGASVKVSCKASGYDFTYYGISWVRQAPGQGLEWMGWISTYNDNTHYAPSLQGRVTMTTDTSTSTAYMELRSLRSDDTAVYYCARESYYGSGAHRGGMDVWGQGTTVTVSS VL: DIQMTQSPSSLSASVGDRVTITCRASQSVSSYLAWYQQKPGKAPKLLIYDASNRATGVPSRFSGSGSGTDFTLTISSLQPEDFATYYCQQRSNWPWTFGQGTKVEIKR; 14.5
TL1A-0303 (antibody, human IgG1, kappa, V domains shown, human IgG1 effector-function-minimized / human kappa) VH: QVQLVQSGAEVKKPGASVKVSCKASGYDFTYYGIGWVRQAPGQGLEWMGWISTYNTGTHYAPSLQGRVTMTTDTSTSTAYMELRSLRSDDTAVYYCARESYYGSGAHRGGMDVWGQGTTVTVSS VL: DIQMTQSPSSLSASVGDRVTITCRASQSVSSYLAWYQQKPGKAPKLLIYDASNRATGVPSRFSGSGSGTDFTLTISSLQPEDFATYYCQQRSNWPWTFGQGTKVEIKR; 15

// moving on: another record for IC50
QUERY: Given the binder TL1A-0295 (antibody, human IgG1, kappa, V domains shown, human IgG1 effector-function-minimized / human kappa) VH: QVQLVQSGAEVKKPGASVKVSCKASGYDFTYYGVSWVRQAPGQGLEWMGWISTYNTNTHYAPSLQGRVTMTTDTSTSTAYMELRSLRSDDTAVYYCARESYYGSGAHRGGMDVWGQGTTVTVSS VL: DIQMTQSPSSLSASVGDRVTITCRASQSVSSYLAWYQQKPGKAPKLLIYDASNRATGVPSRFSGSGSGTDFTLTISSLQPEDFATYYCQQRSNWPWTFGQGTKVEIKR , write its reported IC50.
RESULT: 12.3
